The following compounds are shown together with reported pIC50 values.
# MEASUREMENT_TARGET: BRD4 (BD1) (Homo sapiens, UniProt O60885)
# Construct: with relatively long constructs also being possible, preferably amino acids 44-168
# ASSAY_TEXT: Binding assay BRD4/acetylated peptide H4 (TR-FRET protein-protein interaction assay)
pIC50: −log10 of the molar value.

>  <COMPOUND>
CNC(=O)N1N=C(c2ccc(N3CCN(CC(F)(F)F)CC3)cc2)c2cc(OC)c(OC)cc2CC1C (racemic)

>  <MEASUREMENT_TARGET>
BRD4 (BD1) (Homo sapiens, UniProt O60885)

>  <pIC50>
7.10

$$$$
>  <COMPOUND>
CNC(=O)N1N=C(c2ccc(N3CCCN(C)CC3=O)cc2)c2cc(OC)c(OC)cc2C[C@@H]1C

>  <MEASUREMENT_TARGET>
BRD4 (BD1) (Homo sapiens, UniProt O60885)

>  <pIC50>
7.15

$$$$
>  <COMPOUND>
CNC(=O)N1N=C(c2ccc(-c3c(C)noc3C)cc2)c2cc(OC)c(OC(F)F)cc2CC1C (racemic)

>  <MEASUREMENT_TARGET>
BRD4 (BD1) (Homo sapiens, UniProt O60885)

>  <pIC50>
6.89

$$$$
>  <COMPOUND>
CNC(=O)N1N=C(c2ccc(Cl)cc2)c2cc(-c3ccncc3)ccc2CC1C (racemic)

>  <MEASUREMENT_TARGET>
BRD4 (BD1) (Homo sapiens, UniProt O60885)

>  <pIC50>
7.05

$$$$
>  <COMPOUND>
CNC(=O)N1N=C(c2ccc(-c3ccc(C(F)(F)F)nc3)cc2)c2cc(OC)c(OC)cc2CC1C (racemic)

>  <MEASUREMENT_TARGET>
BRD4 (BD1) (Homo sapiens, UniProt O60885)

>  <pIC50>
6.82

$$$$

====

# Test system: LOX-IMVI cells
# ASSAY_TEXT: Cell proliferation assay (alamarBlue), LOX-IMVI
# Type: cell-based
# RECORDED_CONDITIONS: Homo sapiens, 72 hours incubation, inhibition of cell proliferation
Please respond with fulfilled when measured IC50 is strictly beneath 400 nM, and with not fulfilled in all other cases.

>  <COMPOUND>
CNC(=O)N1N=C(c2ccc(N3CCOC3=O)cc2)c2cc(OC)c(OC)cc2C[C@@H]1C

>  <CLASS_ASSIGNMENT>
not fulfilled

$$$$
>  <COMPOUND>
CNC(=O)N1N=C(c2ccc(-c3cnoc3)cc2)c2cc(OC)ccc2C[C@@H]1C

>  <CLASS_ASSIGNMENT>
not fulfilled

$$$$
>  <COMPOUND>
CNC(=O)N1N=C(c2ccc(N3CCOCC3=O)cc2)c2cc(OC)c(OC)cc2C[C@@H]1C

>  <CLASS_ASSIGNMENT>
fulfilled

$$$$
>  <COMPOUND>
CNC(=O)N1N=C(c2ccc(N3CCN(C)CC3)cc2)c2cc(OC)c(OC)cc2CC1C (racemic)

>  <CLASS_ASSIGNMENT>
fulfilled

$$$$
>  <COMPOUND>
CNC(=O)N1N=C(c2ccc(-c3c(C)noc3C)cc2)c2cc(OC)c(OC)cc2C[C@@H]1C

>  <CLASS_ASSIGNMENT>
fulfilled

$$$$
>  <COMPOUND>
CNC(=O)N1N=C(c2ccc(N3CCOCC3)cc2)c2cc(OC)ccc2C[C@@H]1C

>  <CLASS_ASSIGNMENT>
fulfilled

$$$$

====

# MEASUREMENT_TARGET: BRD4 (BD1) (Homo sapiens, UniProt O60885)
# Construct: with relatively long constructs also being possible, preferably amino acids 44-168
# ASSAY_TEXT: Binding assay BRD4/acetylated peptide H4 (TR-FRET protein-protein interaction assay)
pIC50: −log10 of the molar value.
Cut-off 6 on pIC50, inclusive. At or above means 1; below means -1.

>  <COMPOUND>
CNC(=O)N1N=C(c2ccc(Cl)cc2)c2ccc(N3CCOCC3)cc2CC1C (racemic)

>  <CLASS_ASSIGNMENT>
-1

$$$$
>  <COMPOUND>
CNC(=O)N1N=C(c2ccc(N3CC[C@H](O)C3)cc2)c2cc(OC)c(OC)cc2CC1C (mixture of isomers)

>  <CLASS_ASSIGNMENT>
1

$$$$
>  <COMPOUND>
CNC(=O)N1N=C(c2cc(N3CCN(C)CC3)c(Br)cc2Br)c2cc(OC)c(OC)cc2CC1C (racemic)

>  <CLASS_ASSIGNMENT>
-1

$$$$
>  <COMPOUND>
CC[C@H]1Cc2cc(OC)c(OC)cc2C(c2ccc(N3CCNCC3)cc2)=NN1C(=O)NC

>  <CLASS_ASSIGNMENT>
1

$$$$
>  <COMPOUND>
CNC(=O)N1N=C(c2ccc(-c3nnc(C)o3)cc2)c2cc(OC)c(OC)cc2CC1C (racemic)

>  <CLASS_ASSIGNMENT>
1

$$$$
>  <COMPOUND>
CNC(=O)N1N=C(c2ccc(Cl)cc2)c2cc(-n3nc(C)cc3C)ccc2CC1C (racemic)

>  <CLASS_ASSIGNMENT>
1

$$$$
>  <COMPOUND>
CNC(=O)N1N=C(c2ccc(-c3ccc(OC)cc3)cc2)c2cc(OC)c(OC)cc2CC1C (racemic)

>  <CLASS_ASSIGNMENT>
1

$$$$
>  <COMPOUND>
CNC(=O)N1N=C(c2ccc(Cl)cc2)c2ccc(N3CCOC3=O)cc2C[C@@H]1C

>  <CLASS_ASSIGNMENT>
1

$$$$
>  <COMPOUND>
CNC(=O)N1N=C(c2ccc(N3C[C@@H](C)NC[C@@H]3C)cc2)c2cc(OC)c(OC)cc2CC1C (mixture of isomers)

>  <CLASS_ASSIGNMENT>
1

$$$$

====

# MEASUREMENT_TARGET: BRD4 (BD1) (Homo sapiens)
# Construct: with relatively long constructs also being possible, preferably amino acids 44-168
# ASSAY_TEXT: Binding assay BRD4/acetylated peptide H4 (TR-FRET protein-protein interaction assay)
pIC50: −log10 of the molar value.

>  <COMPOUND>
CNC(=O)N1N=C(c2ccc(-n3nc(C(F)(F)F)cc3C)cc2)c2cc(OC)c(OC)cc2CC1C (racemic)

>  <VALUE_PREFIX>
=

>  <pIC50>
7.70

$$$$
>  <COMPOUND>
CNC(=O)N1N=C(c2ccc(N3CCNC(=O)C3)cc2)c2cc(OC)c(OC)cc2C[C@@H]1C

>  <VALUE_PREFIX>
=

>  <pIC50>
6.32

$$$$
>  <COMPOUND>
CNC(=O)N1N=C(c2ccc(N3CCC3)cc2)c2cc(OC)c(OC)cc2C[C@@H]1C

>  <VALUE_PREFIX>
=

>  <pIC50>
7.70

$$$$
>  <COMPOUND>
CNC(=O)N1N=C(c2ccc(-c3ccc(C#N)cc3)cc2)c2cc(OC)c(OC)cc2CC1C (racemic)

>  <VALUE_PREFIX>
=

>  <pIC50>
7.05

$$$$
>  <COMPOUND>
CNC(=O)N1N=C(c2ccc(-c3cccnc3Cl)cc2)c2cc(OC)c(OC)cc2C[C@@H]1C

>  <VALUE_PREFIX>
=

>  <pIC50>
7.22

$$$$
>  <COMPOUND>
CNC(=O)N1N=C(c2ccc(Cl)cc2)c2cc(OCCCN3CCN(C)CC3)ccc2C[C@H]1C

>  <VALUE_PREFIX>
<

>  <pIC50>
4.70

$$$$
>  <COMPOUND>
CNC(=O)N1N=C(c2ccc(-c3cccc([N+](=O)[O-])c3)cc2)c2cc(OC)c(OC)cc2CC1C (racemic)

>  <VALUE_PREFIX>
=

>  <pIC50>
7.15

$$$$
>  <COMPOUND>
CNC(=O)N1N=C(c2ccc(-c3sc(C)nc3C)cc2)c2cc(OC)c(OC)cc2C[C@@H]1C (single isomer, unassigned)

>  <VALUE_PREFIX>
=

>  <pIC50>
6.02

$$$$
>  <COMPOUND>
CNC(=O)N1N=C(c2ccc(-c3ccc([N+](=O)[O-])cc3)cc2)c2cc(OC)c(OC)cc2CC1C (racemic)

>  <VALUE_PREFIX>
=

>  <pIC50>
7.05

$$$$
>  <COMPOUND>
CNC(=O)N1N=C(c2ccc(N3CCN(C(C)=O)CC3)cc2)c2ccc(OC(F)(F)F)cc2CC1C (racemic)

>  <VALUE_PREFIX>
=

>  <pIC50>
5.76

$$$$
>  <COMPOUND>
CCC1Cc2cc(OC)c(OC)cc2C(c2ccc(-c3c(C)nn(C)c3C)cc2)=NN1C(=O)NC (racemic)

>  <VALUE_PREFIX>
=

>  <pIC50>
6.31

$$$$
>  <COMPOUND>
CNC(=O)N1N=C(c2ccc(-c3cncc(OC)c3)cc2)c2cc(OC)c(OC)cc2CC1C (racemic)

>  <VALUE_PREFIX>
=

>  <pIC50>
7.30

$$$$
>  <COMPOUND>
CNC(=O)N1N=C(c2ccc(N3CCN(S(C)(=O)=O)CC3)cc2)c2cc(Cl)c(OC(F)(F)F)cc2CC1C (racemic)

>  <VALUE_PREFIX>
=

>  <pIC50>
5.91

$$$$
